Assign pKd to each entry below.
Target: T1, human SIRPαV1 extracellular domain + His-tag (NP_542970.1) (human, UniProt P78324 31-373)
T1 construct: also called hSIRPαV1; HuSIRPαV1
T1 sequence (P78324 other isoform, or with tags, fused parts or gaps): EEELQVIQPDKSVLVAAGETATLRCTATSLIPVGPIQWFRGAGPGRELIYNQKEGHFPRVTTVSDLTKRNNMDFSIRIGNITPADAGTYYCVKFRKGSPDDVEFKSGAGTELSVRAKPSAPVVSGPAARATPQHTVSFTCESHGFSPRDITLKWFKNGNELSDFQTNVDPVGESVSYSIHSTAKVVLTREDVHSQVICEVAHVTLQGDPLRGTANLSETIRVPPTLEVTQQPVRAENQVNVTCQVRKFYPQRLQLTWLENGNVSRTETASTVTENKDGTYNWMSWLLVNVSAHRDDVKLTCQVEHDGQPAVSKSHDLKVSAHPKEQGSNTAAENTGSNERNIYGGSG
Assay: SPR, Ab captured, ECD-His analyte
For clarity, pKd is expressed as the negative log10 of concentration in mol/L.

Problem: Need pKd, item Antibody E13 (antibody, human IgG1, kappa, L234A L235A, V domains shown) VH: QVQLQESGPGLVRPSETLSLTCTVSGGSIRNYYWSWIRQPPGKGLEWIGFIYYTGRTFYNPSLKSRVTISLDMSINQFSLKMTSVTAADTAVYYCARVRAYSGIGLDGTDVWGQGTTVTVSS VL: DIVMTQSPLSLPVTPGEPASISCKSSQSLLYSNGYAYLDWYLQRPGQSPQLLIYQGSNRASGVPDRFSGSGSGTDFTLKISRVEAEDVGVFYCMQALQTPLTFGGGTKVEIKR
Solution: 8.77

Problem: Need pKd, item Antibody E19 (antibody, human IgG1, kappa, L234A L235A, V domains shown) VH: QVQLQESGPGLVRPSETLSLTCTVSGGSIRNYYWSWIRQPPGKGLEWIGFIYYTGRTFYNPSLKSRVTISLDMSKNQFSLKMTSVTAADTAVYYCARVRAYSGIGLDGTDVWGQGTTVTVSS VL: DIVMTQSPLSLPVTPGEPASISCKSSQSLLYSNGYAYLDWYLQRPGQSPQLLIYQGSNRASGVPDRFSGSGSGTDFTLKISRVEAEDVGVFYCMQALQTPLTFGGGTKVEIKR
Solution: 8.60

Problem: Need pKd, item Antibody E7 (antibody, human IgG1, kappa, L234A L235A, V domains shown) VH: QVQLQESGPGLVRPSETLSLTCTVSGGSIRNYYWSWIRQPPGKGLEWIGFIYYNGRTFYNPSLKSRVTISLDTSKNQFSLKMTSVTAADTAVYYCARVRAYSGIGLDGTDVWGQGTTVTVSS VL: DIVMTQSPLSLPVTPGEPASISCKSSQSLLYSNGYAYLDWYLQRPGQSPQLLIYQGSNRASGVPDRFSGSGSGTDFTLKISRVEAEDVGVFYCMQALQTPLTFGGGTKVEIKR
Solution: 8.92
